- ASSAY_SUMMARY: Cytotoxicity in mock-infected MT-4 cells (MTT method)
- Type: cell-based
- CONDITION_CONTEXT: human; MT-4, MTT method
- Description: The activity of the test compounds against the replication of HIV-1 wt and mutant strains (N119, A17, EFV^R, AZT^R, MDR, SAQ^R) and HIV-2 wt in acutely infected cells was based on the inhibition of virus-induced cytopathogenicity in MT-4 and C8166 cells, respectively. […] After incubation at 37 °C, cell viability was determined using the […] (MTT) method ([Pauwels et al., 1988]). […]

{"COMPOUND": "Cc1cn([C@H]2C[C@H](N=[N+]=[N-])[C@@H](CO)O2)c(=O)[nH]c1=O [AZT, azidothymidine, reference compound]", "CC50": "≥ 20 µM"}
{"COMPOUND": "CC(C)(C)NC(=O)[C@@H]1C[C@@H]2CCCC[C@@H]2CN1C[C@@H](O)[C@H](Cc1ccccc1)NC(=O)[C@H](CC(N)=O)NC(=O)c1ccc2ccccc2n1 [SAQ, saquinavir, reference compound]", "CC50": "≥ 20 µM"}
